meta.source: PubChem BioAssay (NCI)

test system: A498 renal; experiment: NCI tumour cell line growth inhibition, 48 h
This listing pairs compounds with measured TGI.

Here are 3 compounds together with their reported answers.
[
  {
    "COMPOUND": "NC(=O)CCC(N=c1c2ccccc2n(O)c2ccccc12)C(=O)O (centres undefined)",
    "TGI": "> 100 µM"
  },
  {
    "COMPOUND": "N/N=C(/Cc1ccccc1)NNO",
    "TGI": "> 100 µM"
  },
  {
    "COMPOUND": "O=C1Nc2ccccc2/C1=C\\c1c(Cl)n(-c2ccccc2)c2ccccc12",
    "TGI": "22.2 µM"
  }
]

QUERY: Please look at C=C1c2nc3ccccc3n2C=C(c2ccc(C)cc2)N1c1ccc(OC)cc1 and tell me its recorded TGI on A498 renal.
RESULT: > 100 µM
